Test: Selectivity ratio of IC50 for alpha1C/alpha2delta/beta1b L-type calcium channel (unknown origin) to IC50 for rat brain […] N-type calcium channel
PARAMETER MEASURED: Ratio IC50

COMPOUND	Ratio IC50
O=C(O)C1CN(C(c2ccccc2)c2ccccc2)CCN1C(=O)CC(c1ccccc1)c1ccccc1 (stereo unspecified)	103
CCOC(=O)C1CN(C(c2ccccc2)c2ccccc2)CCN1C(=O)CC(c1ccccc1)c1ccccc1 (stereo unspecified)	2880

P. O=C(CC(c1ccccc1)c1ccccc1)N1CCN(C(c2ccccc2)c2ccc(Cl)cc2)CC1 (stereo unspecified)
Q. O=C(CC(c1ccccc1)c1ccccc1)N1CCN(C(c2ccccc2)c2ccc(C(F)(F)F)cc2)CC1 (stereo unspecified)
Of P and Q , which carries the smaller reported Ratio IC50 figure? Returns: label corresponding to the selected item.
Q
